test description: qHTS for Inhibitors of the Functional Ribonucleoprotein Complex (vRNP) of Lassa (LASV) Arenavirus: Viability assay - alamar blue signal for LASV Primary Screen (AID 1347083); also: nearly all actives have a fitted effect of over 80% in size
particulars: cell viability, alamar blue fluorescence (LASV minigenome counter-screen); series mostly up to 57.5 µM
Inconclusive results are not listed. Calls of active or inactive are those of the source. Calls follow the shape of the full dose curve; tested in HEK293 reporter line.
The reply should be one of these categories: Yes (active), No (inactive)

Returns: the outcome recorded for Nc1ncnc2c1c(-c1cnc3[nH]ccc3c1)nn2C1CCCC1 in this assay.
Yes

Returns: the outcome recorded for Nc1ncnc2c1c(I)cn2[C@@H]1C[C@H](N)[C@@H](O)[C@H]1O in this assay.
No

Returns: the outcome recorded for Cc1ccccc1C(=O)c1ccc(Nc2ccc(Br)cc2N)cc1Cl in this assay.
No

Returns: the outcome recorded for C=CC1CN2CCC1CC2C(O)c1ccnc2ccc(OC)cc12 (stereo not given) in this assay.
No

Returns: the outcome recorded for CON=C(C(=O)N[C@@H]1C(=O)N2C(C(=O)O)=C(CSC(=O)c3ccco3)CS[C@H]12)c1csc(N)n1 in this assay.
No

* * *

test description: qHTS for Inhibitors of the Functional Ribonucleoprotein Complex (vRNP) of Lassa (LASV) Arenavirus: Viability assay - alamar blue signal for LASV Primary Screen (AID 1347083); also: nearly all actives have a fitted effect of over 80% in size
particulars: cell viability, alamar blue fluorescence (LASV minigenome counter-screen); series mostly up to 57.5 µM
Results filed as inconclusive are left out. The source made the active and inactive calls. The call rests on the fitted dose curve; tested in HEK293 reporter line.
The reply should be one of these categories: active, inactive

Returns: the outcome recorded for CC1(C)CCC[C@]2(C)[C@H]3CCO[C@]3(C)CC[C@@H]12 in this assay.
inactive

Returns: the outcome recorded for CC(=O)/C=C/c1ccccc1 in this assay.
inactive

Returns: the outcome recorded for CN=C(N)NCCC[C@H](N)C(=O)O in this assay.
inactive

Returns: the outcome recorded for CNCC[C@H](Oc1ccc(C(F)(F)F)cc1)c1ccccc1 in this assay.
inactive

Returns: the outcome recorded for Cc1c(C(N)=O)cc([N+](=O)[O-])cc1[N+](=O)[O-] in this assay.
inactive

Returns: the outcome recorded for CNC(=O)c1ccccc1Nc1nc(Nc2ccc(N3CCOCC3)cc2OC)ncc1Cl in this assay.
active

* * *

Test system: CP215
test description: qHTS profiling for inhibitors of Plasmodium falciparum proliferation (AID 504749); also: nearly all actives have a fitted effect of over 60% in size
particulars: P. falciparum in erythrocytes, SYBR Green DNA, 72 h; series mostly up to 28.7 µM
Inconclusive results are not listed. Calls of active or inactive are those of the source. The call rests on the fitted dose curve; in most records, active means well fitted inhibition curve with a large enough effect; inconclusive means small, poorly fitted or top-dose-only effect; inactive means flat fitted curve, though single readings scatter.
The reply should be one of these categories: true (1) (active), false (0) (inactive)

Returns: the outcome recorded for CCN1C[C@]2(COC)[C@H](O)C[C@H](OC)[C@]34C1C([C@H](OC)[C@H]23)[C@]1(OC(C)=O)C2[C@@H](OC(=O)c3ccccc3)C(O)(C[C@H]24)[C@@H](OC)[C@@H]1O in this assay.
false (0)

Returns: the outcome recorded for CO[C@H]1[C@@H](O)CC(OC2[C@@H](O)CC(OC3[C@@H](O)C[C@H](OC4CC[C@@]5(C)C(CCC6C5CC(O)[C@]5(C)[C@H](C7=CC(=O)OC7)CCC65O)C4)O[C@@H]3C)O[C@@H]2C)O[C@@H]1C (some centres undefined) in this assay.
false (0)

Returns: the outcome recorded for CC(C)[C@@]1(NC(=O)[C@H]2CC3c4cccc5[nH]cc(c45)C[C@H]3N(C)C2)O[C@@]2(O)C3CCCN3C(=O)[C@@H](Cc3ccccc3)N2C1=O (some centres undefined) in this assay.
true (1)

Returns: the outcome recorded for CCN(CC)CCO[C@H]1CC[C@@]2(C)C(=CC[C@@H]3[C@H]2CC[C@]2(C)C(=O)CC[C@H]32)C1 in this assay.
false (0)

* * *

experimental target: Cytochrome P450 3A4 (Homo sapiens) (UniProt P08684)
Sequence (P08684 whole entry, looked up): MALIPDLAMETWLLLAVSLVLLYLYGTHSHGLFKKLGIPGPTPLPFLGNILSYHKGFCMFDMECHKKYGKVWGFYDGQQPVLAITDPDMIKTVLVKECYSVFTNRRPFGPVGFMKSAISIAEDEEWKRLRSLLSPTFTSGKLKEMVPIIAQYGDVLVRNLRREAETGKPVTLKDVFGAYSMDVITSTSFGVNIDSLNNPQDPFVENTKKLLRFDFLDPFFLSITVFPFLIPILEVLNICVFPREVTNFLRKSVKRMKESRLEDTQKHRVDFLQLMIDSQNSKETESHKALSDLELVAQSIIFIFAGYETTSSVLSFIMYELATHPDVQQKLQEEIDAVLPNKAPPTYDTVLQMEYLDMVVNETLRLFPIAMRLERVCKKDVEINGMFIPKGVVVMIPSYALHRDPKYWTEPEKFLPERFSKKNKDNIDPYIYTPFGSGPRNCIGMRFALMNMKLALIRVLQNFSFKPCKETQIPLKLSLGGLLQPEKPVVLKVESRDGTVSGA
test description: qHTS Assay for Activators of Cytochrome P450 3A4 (AID 885); also: nearly all actives have a fitted effect of over 65% in size
particulars: recombinant CYP3A4, Luciferin-PPXE luminescence, 60 min; series mostly up to 57.1 µM
Activity calls are given as the source filed them. Calls follow the shape of the dose curve; as a rule, active = well fitted activation curve with a large enough effect; inconclusive = small, poorly fitted or top-dose-only effect; inactive = no such curve, though single readings can be large or run the other way.
The reply should be one of these categories: True (active), False (inactive)

Returns: the outcome recorded for Oc1ccc2c3c1O[C@H]1c4oc5ccccc5c4C[C@]4(O)[C@H](C2)N(CC2CC2)CC[C@@]314 in this assay.
False

Returns: the outcome recorded for CN(C)Cc1c[nH]c2ccccc12 in this assay.
False

Returns: the outcome recorded for C[N+](C)(C)CCO in this assay.
False

Returns: the outcome recorded for c1ccc(CCCCN2CCC(c3ccccc3)CC2)cc1 in this assay.
True

Returns: the outcome recorded for CN1CCc2cc3c(cc2C1C1OC(=O)c2c1ccc1c2OCO1)OCO3 (configuration not stated) in this assay.
False

Returns: the outcome recorded for c1ccc(Nc2cccc3ccccc23)cc1 in this assay.
False

Returns: the outcome recorded for Oc1ccc2c3c1O[C@H]1c4[nH]c5ccccc5c4C[C@]4(O)[C@H](C2)N(CC2CC2)CC[C@@]314 in this assay.
False

Returns: the outcome recorded for Oc1ccccc1O in this assay.
False

Returns: the outcome recorded for O=c1c(O)c(-c2cc(O)c(O)c(O)c2)oc2cc(O)cc(O)c12 in this assay.
False

Returns: the outcome recorded for c1ccc([C@H]2CNCc3ccccc32)cc1 in this assay.
False

Returns: the outcome recorded for C[C@@H](Cc1ccc(OCC(=O)O)cc1)NC[C@H](O)c1cccc(Cl)c1 in this assay.
False

Returns: the outcome recorded for COc1ccc2c3c([nH]c2c1)C(C)=NCC3 in this assay.
False

* * *

Tested on: NIH3T3
test description: Cytotoxic Profiling of Annotated Libraries Using Quantitative High-Throughput Screening (AID 1296008); also: % is scaled to controls: 0 for no effect and ±100 for the full control effect; nearly all actives have a fitted effect of over 60% in size
particulars: Five cell lines viability, CellTiter-Glo ATP luminescence, 48-72 h; active compounds read low
Inconclusive results are not listed.
Kindly state max response for each of the entries shown.
Form entry: value (%) — number only.

Please tell me: max response of CC[C@@H]1/C=C/C=C/C[C@H](C)C(O)[C@](C)(O)C(=O)[C@H](C)C(O)[C@H](C)C(=O)[C@H](C)[C@@H](O)[C@H](C)/C=C/C(=O)O[C@H]2[C@@H](C)[C@@H](CC1)O[C@]1(O[C@H](C[C@H](C)O)[C@H](C)CC1=O)[C@@H]2C (stereo partly specified) , system NIH3T3?
-27

Please tell me: max response of C/C=C(\C)C(=O)OC1C2C3(C)CCC(OC4CC(OC)C(OC5OC(C)C(O)C(OC)C5O)C(C)O4)CC3CCC23OC32CCC(C(C)=O)C2(C)C1OC(=O)/C(C)=C/C (stereo unspecified) , system NIH3T3?
-16.5

Please tell me: max response of CC(=O)O[C@H]1CN2CCC1CC2 , system NIH3T3?
1.29

Please tell me: max response of O=S(=O)(c1ccccc1F)N1CCOc2c(N3CCNCC3)cccc21 , system NIH3T3?
2.22

Please tell me: max response of COC1CC(O[C@H]2CC[C@]3(C)C4CC[C@]5(C)[C@@H](C6=CC(=O)OC6)[C@@H](OC(C)=O)C[C@]5(O)C4CC[C@@H]3C2)OC(C)C1O[C@@H]1O[C@H](CO)[C@@H](O)[C@H](O)[C@H]1O (stereo partly specified) , system NIH3T3?
4.46

Please tell me: max response of N#Cc1ccc([C@H]2CCCC[C@H]2O)cc1C(F)(F)F , system NIH3T3?
-1.88

Please tell me: max response of CC(=O)OC[C@]12[C@H](OC(C)=O)C(=O)[C@@H]3[C@@H](O)[C@@]14O[C@@]3(C)COC(=O)c1cccnc1[C@@H](C)[C@H](C)C(=O)O[C@@H]([C@H](OC(C)=O)[C@@H]2OC(C)=O)[C@]4(C)O , system NIH3T3?
0.381

Please tell me: max response of CC1CCCC(=O)CCC/C=C/c2cc(O)cc(O)c2C(=O)O1 (stereo unspecified) , system NIH3T3?
-2.03

Please tell me: max response of NNC(=O)c1nn(Cc2ccc(Cl)cc2Cl)c2ccccc12 , system NIH3T3?
-5.07

Please tell me: max response of COc1ccc(C23CCC(=O)C=C2N(C)CC3)cc1OC (stereo unspecified) , system NIH3T3?
-27.9

Please tell me: max response of C1=C(c2cnc[nH]2)c2ccsc2CC1 , system NIH3T3?
-2.31

Please tell me: max response of CN1CCc2cc3c(cc2C1C1OC(=O)c2c1ccc1c2OCO1)OCO3 (stereo unspecified) , system NIH3T3?
0.735

Please tell me: max response of CC(=O)N1N=C(c2ccc(N)cc2)c2cc3c(cc2C[C@H]1C)OCO3 , system NIH3T3?
-2.08

Please tell me: max response of CCCCCn1cc(C(=O)Cc2ccccc2OC)c2ccccc21 , system NIH3T3?
-7.87

Please tell me: max response of COC(=O)C12C(=O)C(C)(O)C(=O)C1(C)C(C)=CC1C34CCC(OC3=O)C(C)(C)C4CCC12C (stereo unspecified) , system NIH3T3?
-10.7

Please tell me: max response of C=C1[C@@]23C(=O)O[C@H](C)[C@]24O[C@@]2(C(=C)[C@]5(C=CC(=O)OC5(C)C)CC[C@]32C)[C@H](O)[C@@]1(C)OC4=O , system NIH3T3?
0.197

Just for reference, PubChem BioAssay (NCATS) is where these values come from.
